Target: T1, 4H797-AA
T1 chain: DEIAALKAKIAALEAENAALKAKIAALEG
Experiment: two-hybrid library CCmax;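 further: natural log of median RNA to DNA barcode read ratio; higher means stronger binding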
Conditions: mean of both orientations
Assay metric: interaction score

DKNAALKAEIAALKAKNAALEAEIAALEG [4H3697-AA]    -1.44
DEIAALKAENAALKAEIAALEAKIAALKG [4H710-AA]    -1.31

[A] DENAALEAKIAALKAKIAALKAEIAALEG [4H1385-AA]
[B] DEIAALKAEIAALEAENAALEAKNAALKG [4H536-AA]
[C] DKNAALEAEIAALEAKIAALKAKNAALKG [4H3120-AA]
Ask: List from greatest to least interaction score. List labels; respect the requested ordering.
Result: B, A, C

All figures here come from paper PMC10397247.
